# experiment: inhibitors of E-selectin induction by TNFa, primary screen, imaging, HUVEC, immunofluorescence, MLSMR starter and 10KST1 sets (AID 487);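 also: 100% = median nuclei count of all wells on the same plate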
# conditionNotes: HUVEC TNFalpha-induced E-selectin immunofluorescence imaging, at 2 µM; measured here: cell number, toxicity
quantity: nuclei count
Write the numeric value and follow it with the unit.

Field: nuclei count. Fill in for each record below.
1. CC(O)Cn1cnc2c1c(=O)n(C)c(=O)n2C (configuration not stated)
2. COc1ccc(CNC(=O)c2c(C)cc(=O)oc2C)cc1OC
3. Cc1nn(-c2ccccc2)c2c1C(=O)NC(=O)C(C)(C)C2
4. Cn1c(=O)c2c(ncn2CCO)n(C)c1=O

1: 128%; 2: 167%; 3: 120%; 4: 114%

###

# experiment: inhibitors of TNFa-induced NFkB p65 translocation, primary screen, imaging, HUVEC, MLSMR starter and 10KST1 sets (AID 438);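 also: compound added about 3h40 before a 20 min TNFalpha stimulation; signal is the nuclear over cytoplasmic p65 intensity ratio per well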
# conditionNotes: HUVEC TNFa-induced p65 nuclear translocation; at 2 µM, stronger effect = higher value, 0% TNFa-plus-vehicle, 100% no-TNFa wells
For each record, write down the corresponding inhibition.
One number for each entry, in %.

Field: inhibition. Fill in for each record below.
1. COc1cc(-c2nn3c(-c4cccnc4)nnc3s2)cc(OC)c1OC
2. C(=N\n1cnnc1)/c1cccnc1
3. N/C(CCCN1CCCCC1)=N/O
4. CCCCCCSC1=C(C#N)C(c2ccccc2)CC(=O)N1 (stereo not drawn)
5. Clc1ccc(-c2nnc3sc(Cc4cccs4)nn23)cc1
6. CC(=O)Nc1ccc(-c2cc3ccccc3o2)cc1
7. Cc1cccc(N(C)C(=S)Oc2ccc3ccccc3c2)c1
8. Oc1c(C=NCc2ccncc2)sc2ccccc12

1. -0.7
2. 0.9
3. -6
4. 0.6
5. -3.4
6. -3.8
7. -0.1
8. -11.1

Field: inhibition. Fill in for each record below.
1. COC(=O)C1=C(C)N=C2SC(C)C(=O)N2C1c1cccc(F)c1 (stereo not drawn)
2. COc1ccc(C2=Nn3c(nnc3-c3ccccc3)SC2)cc1OC

-0.4
-5.5

Field: inhibition. Fill in for each record below.
1. CCCCNC(=O)c1cc2n(n1)C(C(F)(F)F)CC(c1ccccc1)N2 (stereo not drawn)
2. Cn1nccc1C(=O)Nc1ccccc1C(=O)O
3. COc1cc(/C=N/O)ccc1OCc1ccc(C(=O)O)cc1
4. CCOC(=O)c1c(C)n(C)c2ccc(OC)c(NC(=O)CN3CCN(Cc4ccccc4)CC3)c12
5. Clc1ccc(-c2cn3c(n2)CCC3)cc1
6. COc1ccc(/C=C(/C#N)c2cccnc2)cc1OC
7. O=c1oc2c3c4c(cc2c(C(F)(F)F)c1CCN1CCOCC1)CCCN4CCC3
8. CC1=CC(c2ccccc2)n2nc(N3C(=O)C4CC=CCC4C3=O)nc2N1 (stereo not drawn)

[-6.4, -1.2, -21.9, 0.8, -16.9, 4.6, -1, -3.2]

Field: inhibition. Fill in for each record below.
1. CCOC(=O)c1c(C)n(C)c2ccc(OC)c(NC(=O)CCN3CCSCC3)c12
2. N#Cc1nc(-c2ccccc2Cl)oc1N1CCCCC1
3. CCCc1[nH]nc2c1C(c1c(C)nn(-c3ccccc3)c1Cl)C(C#N)=C(N)O2 (stereo not drawn)

3
6.4
-3.2

Field: inhibition. Fill in for each record below.
1. O=C1OC2CCC1(c1ccccc1)C2 (stereo not drawn)
2. O=C(O)CCSc1ccc2ccccc2n1

1: -7; 2: 0.3
